- SUBJECT_OF_TEST: P2X7 (Homo sapiens (Human))
- Sequence (Q99572 whole entry): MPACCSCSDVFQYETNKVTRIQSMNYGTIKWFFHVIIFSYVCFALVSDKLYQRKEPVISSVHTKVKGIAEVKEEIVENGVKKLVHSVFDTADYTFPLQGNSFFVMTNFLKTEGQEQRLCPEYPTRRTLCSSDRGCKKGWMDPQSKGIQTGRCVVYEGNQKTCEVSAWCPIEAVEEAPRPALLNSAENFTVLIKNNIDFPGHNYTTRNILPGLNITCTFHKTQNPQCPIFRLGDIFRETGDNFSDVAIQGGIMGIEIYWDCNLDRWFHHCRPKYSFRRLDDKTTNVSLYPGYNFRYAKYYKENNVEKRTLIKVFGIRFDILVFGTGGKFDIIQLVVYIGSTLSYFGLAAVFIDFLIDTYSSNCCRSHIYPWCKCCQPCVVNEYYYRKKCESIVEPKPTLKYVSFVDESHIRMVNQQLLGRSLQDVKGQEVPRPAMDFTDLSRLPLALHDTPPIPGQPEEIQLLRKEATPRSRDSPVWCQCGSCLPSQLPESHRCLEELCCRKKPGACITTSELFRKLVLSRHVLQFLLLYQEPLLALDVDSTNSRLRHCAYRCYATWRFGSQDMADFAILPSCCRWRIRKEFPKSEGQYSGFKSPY
- ASSAY_TEXT: P2X7 antagonism in human peripheral blood mononuclear cells (PBMCs), IL-1β release after LPS + Bz-ATP (ELISA)
- Format: cell-based
- CONDITION: Table 3 (additional runs), 10 μM compound, 0.5 mM Bz-ATP
QUANTITY: PBMC 10 μM (% control)

compound="CC(C)c1nc2c(c(-c3ccn[nH]3)n1)C[C@H](C)N(C(=O)c1cccc(C(F)(F)F)c1Cl)C2 (single isomer, unassigned)" units="% control" meas_value=6.3
compound="Cc1nc2c(c(-c3ccn[nH]3)n1)C[C@H](C)N(C(=O)c1cccc(C(F)(F)F)c1Cl)C2 (single isomer, unassigned)" units="% control" meas_value=2.8
compound="Cc1nc2c(c(-c3ccn[nH]3)n1)C[C@H](C)N(C(=O)c1ccc(Cl)cc1Cl)C2 (single isomer, unassigned)" units="% control" meas_value=−0.8

I: COCCn1ccc(-c2nc(C)nc3c2C[C@@H](C)N(C(=O)c2cccc(C(F)(F)F)c2Cl)C3)n1 (single isomer, unassigned)
II: C[C@H]1c2ncnc(-c3ccn[nH]3)c2CCN1C(=O)c1cccc(C(F)(F)F)c1Cl (single isomer, unassigned)
Hey, which is lower on measured PBMC 10 μM (% control), I or II ? Bench note: the answer is the label of the chosen record.
II

---

- SUBJECT_OF_TEST: UniProtKB Q99572
- ASSAY_TEXT: P2X7 antagonism in human peripheral blood mononuclear cells (PBMCs), IL-1β release after LPS + Bz-ATP (ELISA)
- Type: cell-based
- CONDITION: P2X7, Table 2, 10 μM compound, 0.5 mM Bz-ATP, read-out: PBMC 10 μM (% control)
QUANTITY: remaining activity at 10 µM (%)

Consider the following illustrative entries.
molecule="C[C@H]1c2ncnc(-c3ccn[nH]3)c2CCN1C(=O)c1ccc(F)c(C(F)(F)F)c1Cl (single isomer, unassigned)" quantity="remaining activity at 10 µM" meas_value=0.1
molecule="Cc1nc2c(c(-c3ccn[nH]3)n1)C[C@H](C)N(C(=O)c1cccc(C(F)(F)F)c1F)C2 (single isomer, unassigned)" quantity="remaining activity at 10 µM" meas_value=14.3
molecule="C[C@@H]1c2ncnc(-c3ccn[nH]3)c2CCN1C(=O)c1cccc(C(F)(F)F)c1Cl (single isomer, unassigned)" quantity="remaining activity at 10 µM" meas_value=-2.1

P: CCc1nc2c(c(-c3ccn[nH]3)n1)C[C@@H](C)N(C(=O)c1cccc(C(F)(F)F)c1Cl)C2 (single isomer, unassigned)
Q: CCc1nc2c(c(-c3ccn[nH]3)n1)C[C@H](C)N(C(=O)c1cccc(C(F)(F)F)c1Cl)C2 (single isomer, unassigned)
R: Cc1nc2c(c(-c3ccn[nH]3)n1)C[C@H](C)N(C(=O)c1ccc(Cl)cc1Cl)C2 (single isomer, unassigned)
I would appreciate it if you could sort these 3 molecules by remaining activity at 10 µM, starting from the smallest number. Present the labels in the sequence the task asks for.
R, Q, P

P: C[C@H]1c2ncnc(-c3ccn[nH]3)c2CCN1C(=O)c1ccc(Cl)c(F)c1Cl (single isomer, unassigned)
Q: Cc1nc2c(c(-c3ccn[nH]3)n1)C[C@H](C)N(C(=O)c1cccc(C(F)(F)F)c1C)C2 (single isomer, unassigned)
Hey, which is lower on measured remaining activity at 10 µM, P or Q ? Bench note: the answer is the label of the chosen record.
Q

Reference for the values: patent US9604982B2
